# Test system: HCC 1187
# PROTOCOL TEXT: Cell Titer-Glo cell viability: HCC 1187
# Assay type: cell-based
# CONDITION CONTEXT: Homo sapiens, HCC1187; HCC-1187, breast cancer; 72 h incubation, Cell Titer-Glo
# Text: Compound nos. […] This panel of cell lines includes an ER− breast carcinoma, primary breast ductal carcinoma, prostate adenocarcinoma, mammary adenocarcinoma, mammary ductal carcinoma, mammary ductal carcinoma, ovary adenocarcinoma, ER+ breast carcinoma, ER-HER2+ mammary ductal carcinoma and an ER+ mammary ductal carcinoma, respectively. This assay quantitates the ATP present in order to determine the number of viable cells in culture. […]
pIC50: −log10 of the molar value.
Form field: pIC50 (one value per entry).

Known results for compounds:
What measured pIC50 goes with O=C(Nc1ccc(F)nc1)C1CCN1c1nc2c(c(Nc3cc(C4CC4)[nH]n3)n1)CCC2 (racemic) [Compound 5] ?
> 6.00

Would you kindly share the measured pIC50 for O=C(Nc1ccc(F)nc1)C1CC(O)CN1c1nc2c(c(Nc3cc(C4CC4)[nH]n3)n1)CCC2 (single isomer, unassigned) [Compound 10a] ?
> 6.00

Would you kindly share the measured pIC50 for O=C(Nc1cnccn1)C1CCCN1c1nc2c(c(Nc3cc(C4CC4)[nH]n3)n1)CCC2 (single isomer, unassigned) [Compound 6b] ?
> 6.00

Turning now to a further compound:
# get_value(readout='pIC50', item= O=C(Nc1ccc(F)nc1)C1CCCN1c1nc2c(c(Nc3cc(C4CC4)[nH]n3)n1)CCC2 (single isomer, unassigned) [Compound 2b] )
7.00

* * *

pIC50 reference
# System: UACC 812
# PROTOCOL TEXT: Cell Titer-Glo cell viability: UACC 812
# Type: cell-based
# CONDITION CONTEXT: Homo sapiens; UACC 812, breast cancer; 72 h incubation, Cell Titer-Glo
pIC50: −log10 of the molar value.

Record request: pIC50 value, item O=C(Nc1ccc(F)nc1)C1CC(O)CN1c1nc2c(c(Nc3cc(C4CC4)[nH]n3)n1)CCC2 (single isomer, unassigned) [Compound 10a]
> 5.00

Name the recorded pIC50 for O=C(Nc1cnccn1)C1CCCN1c1nc2c(c(Nc3cc(C4CC4)[nH]n3)n1)CCC2 (single isomer, unassigned) [Compound 6b] .
6.00

pIC50 lookup needed for O=C(Nc1ccc(F)nc1)C1CCCN1c1nc2c(c(Nc3cc(C4CC4)[nH]n3)n1)CCC2 (single isomer, unassigned) [Compound 2b] , thanks.
> 5.00

Would you kindly look at the next entry?
So what does the record say about pIC50 for O=C(Nc1ccc(F)nc1)C1CCN1c1nc2c(c(Nc3cc(C4CC4)[nH]n3)n1)CCC2 (racemic) [Compound 5] ?
> 4.00

* * *

# TESTED SYSTEM: IR (Homo sapiens, UniProt P06213)
# Construct: purchased Millipore 14-803
# Sequence (P06213 28-1382): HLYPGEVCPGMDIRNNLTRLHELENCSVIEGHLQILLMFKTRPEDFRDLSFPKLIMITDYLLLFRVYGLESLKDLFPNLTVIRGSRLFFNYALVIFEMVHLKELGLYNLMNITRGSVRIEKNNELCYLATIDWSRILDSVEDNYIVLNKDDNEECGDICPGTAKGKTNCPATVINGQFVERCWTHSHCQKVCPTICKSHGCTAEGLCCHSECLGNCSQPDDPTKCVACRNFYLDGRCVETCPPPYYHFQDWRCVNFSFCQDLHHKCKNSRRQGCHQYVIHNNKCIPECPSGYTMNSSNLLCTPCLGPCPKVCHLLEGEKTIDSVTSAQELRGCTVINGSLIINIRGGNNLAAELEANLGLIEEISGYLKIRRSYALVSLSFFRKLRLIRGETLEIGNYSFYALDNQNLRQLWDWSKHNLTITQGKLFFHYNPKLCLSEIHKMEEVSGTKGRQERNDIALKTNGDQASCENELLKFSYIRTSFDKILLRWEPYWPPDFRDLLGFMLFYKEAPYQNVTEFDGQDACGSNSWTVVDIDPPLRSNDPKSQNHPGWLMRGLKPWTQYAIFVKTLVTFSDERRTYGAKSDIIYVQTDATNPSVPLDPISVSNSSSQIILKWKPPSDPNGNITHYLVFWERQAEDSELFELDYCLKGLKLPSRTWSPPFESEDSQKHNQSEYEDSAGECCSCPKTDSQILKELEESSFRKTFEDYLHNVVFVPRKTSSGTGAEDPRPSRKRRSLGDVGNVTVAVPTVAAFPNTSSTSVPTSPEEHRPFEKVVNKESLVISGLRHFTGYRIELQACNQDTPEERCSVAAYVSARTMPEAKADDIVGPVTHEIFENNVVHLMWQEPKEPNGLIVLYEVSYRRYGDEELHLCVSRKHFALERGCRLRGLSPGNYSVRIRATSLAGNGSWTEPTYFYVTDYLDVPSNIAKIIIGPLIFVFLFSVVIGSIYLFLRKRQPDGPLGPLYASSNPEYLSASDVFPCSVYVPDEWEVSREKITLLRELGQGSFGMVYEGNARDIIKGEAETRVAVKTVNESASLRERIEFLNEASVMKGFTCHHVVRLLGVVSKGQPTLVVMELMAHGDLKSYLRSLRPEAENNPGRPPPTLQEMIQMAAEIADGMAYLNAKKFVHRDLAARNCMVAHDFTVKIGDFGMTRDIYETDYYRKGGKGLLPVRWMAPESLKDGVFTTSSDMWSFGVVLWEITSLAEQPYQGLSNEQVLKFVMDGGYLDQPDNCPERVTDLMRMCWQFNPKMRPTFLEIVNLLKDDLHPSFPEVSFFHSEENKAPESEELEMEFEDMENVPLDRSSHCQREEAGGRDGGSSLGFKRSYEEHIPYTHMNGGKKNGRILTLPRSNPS
# PROTOCOL TEXT: In vitro IR enzymatic assay (ADP-Glo kinase assay)
# Format: biochemical
# CONDITION CONTEXT: activated IR, 30 nM, average; read-out: % Inh @ 30 nM Avg
Reported values of inhibition at 0.03 µM for individual entries
Express your answer in %, writing the number without its unit.

Worked set:
inhibition at 0.03 µM of O=C(Nc1ccc(F)nc1)C1CCCN1c1nc2c(c(Nc3cc(C4CC4)[nH]n3)n1)CCCC2 (single isomer, unassigned) [Compound 14b] on IR (Homo sapiens, UniProt P06213)?
81

Give IR (Homo sapiens, UniProt P06213) inhibition at 0.03 µM for CC(C)c1cc(Nc2nc(N3CCCC3C(=O)Nc3ccc(F)nc3)nc3c2CC(C)(C)C3)n[nH]1 (racemic) [Compound 50]
51

With those in mind, consider the next compound.
Quick check: inhibition at 0.03 µM on IR (Homo sapiens, UniProt P06213), item O=C(Nc1ccc(F)nc1)C1CCN1c1nc2c(c(Nc3cc(C4CC4)[nH]n3)n1)CCC2 (racemic) [Compound 5] ?
76

* * *

This section presents molecules with their documented phosphorylated AKT levels normalized to actin levels (pAKT/actin) values.
# System: Akt phosphorylation induced by IGF-1R in HT-29 cells
# PROTOCOL TEXT: Western blot analysis of Akt phosphorylation induced by IGF-1R
# Assay type: cell-based, Human
# CONDITION CONTEXT: 1 nM compound 2 h, then IGF-1 10 ng/mL 10 min; HT-29
Please reply with the number alone, leaving off any unit.

Request - read-out phosphorylated AKT levels normalized to actin levels (pAKT/actin) | tested on Akt phosphorylation induced by IGF-1R in HT-29 cells | molecule O=C(Nc1ccc(F)nc1)C1CCCN1c1nc2c(c(Nc3cc(C4CCCC4)[nH]n3)n1)CCCC2 (single isomer, unassigned) [Compound 15b]
0.58

Give the reported phosphorylated AKT levels normalized to actin levels (pAKT/actin) for CC(C)c1cc(Nc2nc(N3CCCC3C(=O)Nc3ccc(F)nc3)nc3c2CCC3)n[nH]1 (single isomer, unassigned) (system: Akt phosphorylation induced by IGF-1R in HT-29 cells).
0.31

Find phosphorylated AKT levels normalized to actin levels (pAKT/actin) (Akt phosphorylation induced by IGF-1R in HT-29 cells) for the entry CC1(O)CC(c2nc(-c3ccc4ccc(-c5ccccc5)nc4c3)c3c(N)nccn23)C1 (stereo not drawn) [OSI-906, reference compound]
0.85

Recall the recorded phosphorylated AKT levels normalized to actin levels (pAKT/actin) for O=C(Nc1cnccn1)C1CCCN1c1nc2c(c(Nc3cc(C4CC4)[nH]n3)n1)CCC2 (single isomer, unassigned) [Compound 6b] with Akt phosphorylation induced by IGF-1R in HT-29 cells and state it.
0.18

Which phosphorylated AKT levels normalized to actin levels (pAKT/actin) is reported with Akt phosphorylation induced by IGF-1R in HT-29 cells for this entry: CC(C)c1cc(Nc2nc(N3CCCC3C(=O)Nc3ccc(F)nc3)nc3c2CCCC3)n[nH]1 (single isomer, unassigned) [Compound 13b] ?
0.09

API: the following record is the query input.
Please state recorded phosphorylated AKT levels normalized to actin levels (pAKT/actin) (tested on Akt phosphorylation induced by IGF-1R in HT-29 cells) of CC(C)c1cc(Nc2nc(N3CCCC3C(=O)Nc3ccc(F)nc3)nc3c2CCCC3)n[nH]1 (single isomer, unassigned) [Compound 13a]
0.54

* * *

Reported values of inhibition at 0.03 µM for individual entries
# TESTED SYSTEM: UniProt P08069
# Sequence (P08069 31-1367): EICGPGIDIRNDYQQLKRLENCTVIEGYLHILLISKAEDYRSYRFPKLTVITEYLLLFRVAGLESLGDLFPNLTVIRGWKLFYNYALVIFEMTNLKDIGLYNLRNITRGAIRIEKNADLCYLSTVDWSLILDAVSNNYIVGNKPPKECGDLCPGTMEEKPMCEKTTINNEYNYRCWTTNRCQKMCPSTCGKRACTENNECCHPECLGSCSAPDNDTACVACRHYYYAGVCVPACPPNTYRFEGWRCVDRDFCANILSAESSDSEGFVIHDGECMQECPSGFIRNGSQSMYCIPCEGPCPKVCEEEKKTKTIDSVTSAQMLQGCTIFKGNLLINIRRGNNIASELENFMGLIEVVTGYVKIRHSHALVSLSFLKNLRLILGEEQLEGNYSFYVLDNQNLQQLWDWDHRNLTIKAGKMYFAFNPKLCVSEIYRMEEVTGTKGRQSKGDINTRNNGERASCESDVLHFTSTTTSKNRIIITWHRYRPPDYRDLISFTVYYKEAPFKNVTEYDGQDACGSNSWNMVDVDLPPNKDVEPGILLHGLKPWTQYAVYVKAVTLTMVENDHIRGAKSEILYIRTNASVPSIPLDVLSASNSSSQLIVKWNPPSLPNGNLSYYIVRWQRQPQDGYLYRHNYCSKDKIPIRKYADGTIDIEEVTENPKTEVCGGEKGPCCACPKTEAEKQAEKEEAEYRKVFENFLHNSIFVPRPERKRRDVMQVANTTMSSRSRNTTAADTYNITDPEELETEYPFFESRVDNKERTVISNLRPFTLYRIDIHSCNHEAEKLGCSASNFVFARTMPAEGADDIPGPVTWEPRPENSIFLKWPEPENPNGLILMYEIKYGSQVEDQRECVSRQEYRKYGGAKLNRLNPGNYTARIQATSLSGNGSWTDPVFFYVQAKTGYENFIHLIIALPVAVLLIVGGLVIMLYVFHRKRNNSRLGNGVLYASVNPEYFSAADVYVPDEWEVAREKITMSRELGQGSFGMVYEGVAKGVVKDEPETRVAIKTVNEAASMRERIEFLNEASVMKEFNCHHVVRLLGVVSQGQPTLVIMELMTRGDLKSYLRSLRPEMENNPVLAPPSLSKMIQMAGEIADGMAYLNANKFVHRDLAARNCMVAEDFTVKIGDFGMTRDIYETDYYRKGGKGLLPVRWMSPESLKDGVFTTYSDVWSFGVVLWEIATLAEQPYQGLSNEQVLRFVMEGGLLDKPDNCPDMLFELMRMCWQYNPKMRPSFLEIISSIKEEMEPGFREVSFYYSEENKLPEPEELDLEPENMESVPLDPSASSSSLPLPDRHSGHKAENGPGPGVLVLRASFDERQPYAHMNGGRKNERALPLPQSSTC
# PROTOCOL TEXT: In vitro IGF-1R enzymatic assay (ADP-Glo kinase assay)
# Type: biochemical
# Parameters: purchased Millipore 14-802
# CONDITION CONTEXT: activated IGF-1R, 30 nM, average; read-out: % Inh @ 30 nM Avg
Please append the unit to your numeric answer.

Worked examples follow.
Fill blank: measured inhibition at 0.03 µM of the molecule CC(C)c1cc(Nc2nc(N3CCCCC3C(=O)Nc3ccc(F)nc3)nc3c2CCC3)n[nH]1 (single isomer, unassigned) [Compound 16a] is ____.
21%

I am curious: what inhibition at 0.03 µM value has been reported for CC(C)c1cc(Nc2nc(N3CCCC3C(=O)Nc3ccc(F)nc3)nc3c2CCC3)on1 (single isomer, unassigned) [Compound 12a] ?
20%

Fill blank: measured inhibition at 0.03 µM of the molecule O=C(Nc1ccc(F)nc1)C1CCCN1c1nc2c(c(Nc3cc(C4CCCC4)[nH]n3)n1)CCCC2 (single isomer, unassigned) [Compound 15a] is ____.
19%

Request the reported inhibition at 0.03 µM associated with CC(C)c1cc(Nc2nc(N3CCCC3C(=O)N(C)C)nc3c2CCC3)n[nH]1 (single isomer, unassigned) [Compound 20a]
11%

Using the record for O=C(Nc1ccc(F)nc1)C1C(O)CCN1c1nc2c(c(Nc3cc(C4CC4)[nH]n3)n1)CCC2 (single isomer, unassigned) [Compound 11a] , report its inhibition at 0.03 µM.
13%

Could you tell me which inhibition at 0.03 µM is on file for CC(C)c1cc(Nc2nc(N3CCCC3C(=O)Nc3ccc(F)nc3)nc3c2CC(C)(C)C3)n[nH]1 (racemic) ?
35%

What value of inhibition at 0.03 µM has been reported for the following molecule? O=C(Nc1ccc(F)nc1)C1CCCCN1c1nc2c(c(Nc3cc(C4CCCC4)[nH]n3)n1)CCC2 (single isomer, unassigned) [Compound 17a]
18%

Reported inhibition at 0.03 µM, molecule O=C(Nc1ccc(F)nc1)C1CCCN1c1nc2c(c(Nc3cc(C4CC4)[nH]n3)n1)CCCC2 (single isomer, unassigned) [Compound 14b] : ____
77%

New cases:
Which inhibition at 0.03 µM value is on record for O=C(Nc1ccc(F)nc1)C1CCCCN1c1nc2c(c(Nc3cc(C4CC4)[nH]n3)n1)CCC2 (single isomer, unassigned) ?
16%

What value of measured inhibition at 0.03 µM is listed for O=C(Nc1ccc(F)nc1)C1CCN1c1nc2c(c(Nc3cc(C4CC4)[nH]n3)n1)CCC2 (racemic) ?
66%
